The measured values listed here are drawn from ChEMBL document CHEMBL2440076.

Tested on: SF-268
METHOD_DESCRIPTION: Growth inhibition of human SF268 cells after 48 hrs by sulforhodamine B assay
Format: functional
SETUP_CONDITIONS: SF-268, 48 h, read-out: LC50 (the source's name)
# CC50 per entry

Here is how some compounds turned out for CC50.
STRUCTURE	CC50
COc1cc(-c2nn(-c3cccc(NC(=O)c4cccc(C(F)(F)F)c4)c3)cc2-c2ccncc2)ccc1Cl	> 50 µM
O=C(Nc1cccc(-n2cc(-c3ccncc3)c(-c3ccc(Cl)c(O)c3)n2)c1)Nc1cccc(C(F)(F)F)c1	> 32.5 µM
COc1cc(-c2nn(-c3cccc(NC(=O)Nc4cccc(C(F)(F)F)c4)c3)cc2-c2ccncc2)ccc1Cl	50 µM
O=C(Nc1cccc(-n2cc(-c3ccncc3)c(-c3ccc(Cl)c(O)c3)n2)c1)Nc1ccc(Cl)c(C(F)(F)F)c1	> 32.5 µM

Attention now shifts to the item below.
Value of CC50 reported for the compound COc1cc(-c2nn(-c3cccc(NC(=O)c4ccc(Cl)c(C(F)(F)F)c4)c3)cc2-c2ccncc2)ccc1Cl is > 32.5 µM
